The reported numbers originate from paper PMC3897212.

# assayDetails: Time course tissue distribution / pharmacokinetic study in mice
# Type: in vivo, female FVB mice
# assayContext: female, FVB, mouse, liver, po, 90 mg/kg
assayReadout: half-life (h)

> print(dat)
                       smilesrepresentation  testresult
1  CS(=O)(=O)CCNCc1ccc(-c2ccc3ncnc(Nc4ccc(OCc5cccc(F)c5)c(Cl)c4)c3c2)o1        1.91

---

# assayDetails: Time course tissue distribution / pharmacokinetic study in mice
# Format: in vivo, female FVB mice
# assayContext: female, FVB, mouse, slowly perfused tissue, po, 90 mg/kg
assayReadout: AUC(0-t) (µM·h)

> print(dat)
                                   compound  testresult
1  CS(=O)(=O)CCNCc1ccc(-c2ccc3ncnc(Nc4ccc(OCc5cccc(F)c5)c(Cl)c4)c3c2)o1 [lapatinib]        18.9
